target: T1, human CD48 (on primary human peripheral blood mononuclear cells) (human, UniProt P09326 27-220)
T1 sequence: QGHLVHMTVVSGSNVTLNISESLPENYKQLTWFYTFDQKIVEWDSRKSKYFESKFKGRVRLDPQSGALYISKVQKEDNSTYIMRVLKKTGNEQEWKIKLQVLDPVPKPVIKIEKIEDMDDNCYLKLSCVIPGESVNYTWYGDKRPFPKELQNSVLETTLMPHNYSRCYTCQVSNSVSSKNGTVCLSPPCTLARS
assayText: cell-based or functional assay
Recorded Inhibition of IFN-gamma Release IC50; Donor 5, one value per entry.
Note: unit Molar is implicit; provide only the numeric part.

Take a look at these entries with their results.
H2M1707N (antibody, V domains shown, Human variable domains, mouse IgG2 Fc (H2M)) VH: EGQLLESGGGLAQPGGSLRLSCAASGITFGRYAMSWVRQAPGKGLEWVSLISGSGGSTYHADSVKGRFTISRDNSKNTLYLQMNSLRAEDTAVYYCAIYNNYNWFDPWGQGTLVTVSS VL: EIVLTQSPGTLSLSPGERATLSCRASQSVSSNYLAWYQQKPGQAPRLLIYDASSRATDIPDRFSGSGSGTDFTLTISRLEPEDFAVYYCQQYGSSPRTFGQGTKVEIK : 1.5e-11
H2M1709N (antibody, mouse IgG2, V domains shown, Human variable domains, mouse IgG2 Fc (H2M)) VH: QVQLVQSGAEVKKPGASVKVSCKVSGYTLTELSIHWVRQAPGKGLEWMGGFDPEDGETIYAQKFQGRVNMTEDTSTDTAYMELSSLRSDDTTVYFCASLLPYFDYWGQGTLVTVSS VL: EIVLTQSPGTLSLSPGERATLSCRASQSVSSSYLAWYQQKPGQAPRLLIYGASSRATGIPDRFSGSGSGTDFTLSISRLEPEDFAVYFCQQYGSSMYTFGQGTKLEIK : 3.2e-11
H2M1763N (antibody, mouse IgG2, V domains shown, Human variable domains, mouse IgG2 Fc (H2M)) VH: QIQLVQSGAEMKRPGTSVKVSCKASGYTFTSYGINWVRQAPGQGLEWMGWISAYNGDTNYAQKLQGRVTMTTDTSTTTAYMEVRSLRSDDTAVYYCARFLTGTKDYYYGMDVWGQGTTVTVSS VL: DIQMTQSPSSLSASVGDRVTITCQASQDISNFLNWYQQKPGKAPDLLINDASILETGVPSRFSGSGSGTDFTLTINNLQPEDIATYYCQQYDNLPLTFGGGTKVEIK : 1.9e-11
H2M1712N (antibody, mouse IgG2, V domains shown, Human variable domains, mouse IgG2 Fc (H2M)) VH: QIQLVQSGAEMKRPGTSVKVSCKASGYTFSSYGINWVRQAPGQGLEWMGWISAYNGDTNYAQKLQGRVTMTTDTSTTTAYMEVRSLRSDDTAVYYCARFLTGTKDLYYGMDVWGQGTTVTVSS VL: DIQMTQSPSSLSASVGDRVTITCQASQDISNFLNWYQQKPGKAPDLLINDASILETGVPSRFSGSGSGTDFTLTINSLQPEDIATYYCQQYDNLPLTFGGGTKVEIK : 1.1e-11

As a next step, examine the binder that follows.
For H2M1811N (antibody, mouse IgG2, V domains shown, Human variable domains, mouse IgG2 Fc (H2M)) VH: QVQLVQSGAEAREPGASVRVSCKASGYTFTDYFIHWVRQAPGQGLEWMGWINPNSGATNFAQKFQGRVTMTRDTSLITAYMDLSRLKSDDAAVFYCARDVDGSGWYLDFWGQGTLVTVSS VL: EIVLTQSPATLSLSPGERATLSCRASQSVSIYLAWYQQKPGQAPRLLIYDASNRATGIPARFSGSGSGTDFTLTISRLEPEDFAVYYCQQRSDWPPSITFGQGTRLEIK , what is its reported Inhibition of IFN-gamma Release IC50; Donor 5?
9.4e-11
